# IC50 per entry
- System: A2780
- protocol.text: Anti-proliferative effect (CellTiter-Glo, 72 h), A2780
- Format: cell-based
- condition.summary: A2780 cells, median, read-out: IC50 antiproliferation assay A2780 [M] (median)
Please reply with the bare figure in M and do not write the unit itself.

Incoming: Consider the compound Cc1nn(C)c2c1-c1cccc3c(CCCOc4cccc5ccccc45)c(C(=O)O)n(c13)CCCOC2 (single isomer, unassigned; enantiomer 2) [Example 045] and give its measured IC50.
Outgoing: 2.78e-05

***
Incoming: IC50 for CN(C)S(=O)(=O)N1CCN(c2ccc(OCc3nn(C)c4c3-c3cccc5c(CCCOc6cccc7ccccc67)c(C(=O)O)n(c35)CCCCCC4)cc2)CC1 (single isomer, unassigned; enantiomer 2) ?
Outgoing: 5.32e-06

Incoming: Which IC50 is reported for this compound? Cc1nn(C)c2c1-c1cccc3c(CCCOc4cccc5ccccc45)c(C(=O)O)n(c13)CCCN(C)C2 (single isomer, unassigned; enantiomer 2)
Outgoing: 1.82e-05
